Recorded values, source patent US20250197496A1.

system.under.test: T1, human CD3 epsilon/delta heterodimer, biotin labeled (human, UniProt P04234 22-105, biotin labeled)
T1 construct: bought (Acro Biosystems); also called Human CD3e/d
procedure.details: SPR, biotinylated CD3e/d on SA chip;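 also: analytes injected over immobilized CD3 heterodimer, association 60-120 s and dissociation 120-420 s, rate and affinity constants obtained by fitting sensorgrams to a 1:1 binding model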
Provide the reported Kd of each item.
Expressed in nM, but write only the number.

Req: Determine from records and report Kd for ULBP2xCD3 bispecific CD58 fusion containing CD3 variant CD3-A6 (bispecific antibody, V domains shown) VH: EVQLLESGGGLVQPGGSLKLSCAASGFTFNDYAMNWVRKAPGKGLEWVARIRSKYNNYATYYADSVKDRFTISRDDSKNTAYLQMNNLKTEDTAVYYCVRHGNFGNSYVSWFAYWGQGTLVTVSS VL: ELVVTQEPSLTVSPGGTVTLTCRSSTGAVTTSNYANWVQDKPGQAPRGLIGGTNKRAPGTPARFSGSLLGGKAALTLSGVQPEDEAEYYCALWYSNLWVFGGGTKLTVL
Resp: 75

Req: Determine from records and report Kd for ULBP2xCD3 bispecific CD58 fusion containing CD3 variant CD3-01 (bispecific antibody, V domains shown) VH: EVQLLESGGGLVQPGGSLKLSCAASGFTFNTYAMNWVRKAPGKGLEWVARIRSKYNNYATYYADSVKDRFTISRDDSKNTAYLQMNNLKTEDTAVYYCVRHGNFGNSYVSWFAYWGQGTLVTVSS VL: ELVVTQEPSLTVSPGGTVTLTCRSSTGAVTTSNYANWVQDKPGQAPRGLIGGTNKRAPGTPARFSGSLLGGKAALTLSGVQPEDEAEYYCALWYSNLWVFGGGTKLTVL
Resp: 4.7

Req: Determine from records and report Kd for ULBP2xCD3 bispecific CD58 fusion containing CD3 variant CD3-A2 (bispecific antibody, V domains shown) VH: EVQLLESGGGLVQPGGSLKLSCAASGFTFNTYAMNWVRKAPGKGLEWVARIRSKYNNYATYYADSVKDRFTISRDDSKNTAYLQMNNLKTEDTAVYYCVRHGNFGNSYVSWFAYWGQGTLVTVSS VL: ELVVTQEPSLTVSPGGTVTLTCRSSTGAVTTSNYANWVQDKPGQAPRGLIGDTNKRAPGTPARFSGSLLGGKAALTLSGVQPEDEAEYYCALWYSNLWVFGGGTKLTVL
Resp: 102

Req: Determine from records and report Kd for ULBP2xCD3 bispecific CD58 fusion containing CD3 variant CD3-A5 (bispecific antibody, V domains shown) VH: EVQLLESGGGLVQPGGSLKLSCAASGFTFNTYAMNWVRKAPGKGLEWVARIRSKYNNYATYYADSVKDRFTISRDDSKNTAYLQMNNLKTEDTAVYYCVRHGNFGDDYVSWFAYWGQGTLVTVSS VL: ELVVTQEPSLTVSPGGTVTLTCRSSTGAVTTSNYANWVQDKPGQAPRGLIGGTNKRAPGTPARFSGSLLGGKAALTLSGVQPEDEAEYYCALWYSQLWVFGGGTKLTVL
Resp: 354

Req: Determine from records and report Kd for ULBP2xCD3 bispecific CD58 fusion containing CD3 variant CD3-A8 (bispecific antibody, V domains shown) VH: EVQLLESGGGLVQPGGSLKLSCAASGFTFNTYAMNWVRKAPGKGLEWVAKIRSKYNNYATYYADSVKDRFTISRDDSKNTAYLQMNNLKTEDTAVYYCVRHGNFGDSYVSWFAYWGQGTLVTVSS VL: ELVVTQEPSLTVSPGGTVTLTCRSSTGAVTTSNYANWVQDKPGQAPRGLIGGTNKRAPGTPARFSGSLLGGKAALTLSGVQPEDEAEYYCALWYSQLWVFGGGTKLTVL
Resp: 147

Req: Determine from records and report Kd for ULBP2xCD3 bispecific CD58 fusion containing CD3 variant CD3-A9 (bispecific antibody, V domains shown) VH: EVQLLESGGGLVQPGGSLKLSCAASGFTFNTYAMNWVRKAPGKGLEWVARIRSKYNNYATYYADSVKDRFTISRDDSKNTAYLQMNNLKTEDTAVYYCVRHGSFGNSYVSWFAYWGQGTLVTVSS VL: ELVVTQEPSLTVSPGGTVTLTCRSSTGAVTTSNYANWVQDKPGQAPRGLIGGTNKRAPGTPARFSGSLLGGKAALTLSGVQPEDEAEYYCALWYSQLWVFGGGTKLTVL
Resp: 155
